The origin of these recorded values is the RepoRT retention time repository (doi:10.1021/acs.analchem.7b00925).

Test: HILIC, Merck SeQuant ZIC-HILIC, 100 × 2.1 mm, 3.5 µm, 25 °C, 0.3 mL/min, estimated dead time 0.73 min; A: water + 0.1% formic acid, pH 3; B: acetonitrile + 0.1% formic acid, pH 3; gradient (min/%B) 0/95 1.5/95 13.5/40 15.5/40 29.7/25 33.5/25 34.5/95 41.5/95
Details: stereoisomer not certain
MEASUREMENT KIND: LC retention time (min)

input: I'd like to know its LC retention time. The compound in question is NCC(O)c1ccc(O)c(O)c1 (configuration not stated) [Noradrenaline]
output: 9.31

input: What value of LC retention time has been reported for the following compound? OCC1OC(O)C(O)C(O)C1O (configuration not stated) [Glucose]
output: 6.86

input: LC retention time for COC(=O)C(Cc1ccccc1)NC(=O)C(N)CC(=O)O (configuration not stated) [Aspartame] ?
output: 5.89

input: Please look up its LC retention time: NCCc1ccc(O)cc1 [Tyramine]
output: 6.81

input: Give the measured LC retention time of O=C(O)Cc1ccccn1 [2-Pyridylacetic acid] .
output: 4.67

input: Query (compound): Cn1c(=O)[nH]c2[nH]c(=O)[nH]c2c1=O [1-methyluric acid] ; field requested: LC retention time
output: 4.66

input: Item Cn1cnc2nc(N)[nH]c(=O)c21 [7-methylguanine] has what recorded LC retention time?
output: 6.62

====

Assay: HILIC, Merck SeQuant ZIC-HILIC, 100 × 2.1 mm, 3.5 µm, 25 °C, 0.3 mL/min, estimated dead time 0.73 min; A: water + 0.1% formic acid, pH 3; B: acetonitrile + 0.1% formic acid, pH 3; gradient (min/%B) 0/95 1.5/95 13.5/40 15.5/40 29.7/25 33.5/25 34.5/95 41.5/95
Conditions: stereoisomer not certain
MEASUREMENT KIND: LC retention time (min)

input: Quick one: LC retention time for CC(=O)NCCCCN [N-acetylputrescine] ?
output: 8.56

input: Reported LC retention time, molecule OC1COC(O)C(O)C1O (stereo not given) [Xylose] : ____
output: 6.03

(A) CC(C)CC(NC(=O)C(C)N)C(=O)O (stereo not given) [Alanyl-leucine]
(B) O=c1[nH]c(=O)c2cn[nH]c2[nH]1 [Alloxanthine]
input: Form field 'greater LC retention time' accepts A or B ; which applies? Please reply using the label of the selected record.
output: A

====

Test: HILIC, Merck SeQuant ZIC-HILIC, 100 × 2.1 mm, 3.5 µm, 25 °C, 0.3 mL/min, estimated dead time 0.73 min; A: water + 0.1% formic acid, pH 3; B: acetonitrile + 0.1% formic acid, pH 3; gradient (min/%B) 0/95 1.5/95 13.5/40 15.5/40 29.7/25 33.5/25 34.5/95 41.5/95
Conditions: stereoisomer not certain
MEASUREMENT KIND: LC retention time (min)

These recorded examples may help you get a feel for the data.
input: Sample "Nc1ccccc1C(=O)O" — what was its LC retention time?
output: 1.24

input: # lookup: LC retention time of NC(CCCCNC(CCC(=O)O)C(=O)O)C(=O)O (centres undefined)
output: 10.1

input: Any idea what LC retention time was measured for CC1CCCN1 (centres undefined) ?
output: 6.72

input: Entry CC(NC(=O)C(N)Cc1ccccc1)C(=O)NC(CO)C(=O)O (centres undefined) has what LC retention time?
output: 7.49

input: What does the data say about its LC retention time? Entry: "C1CCNC1"
output: 7.71

(1) CC(C)C(NC(=O)CN)C(=O)O (centres undefined)
(2) O=S(=O)(O)CCN1CCN(CCO)CC1
input: Lab note: record which item had the higher LC retention time, 1 or 2 . # respond with the chosen item's label
output: 2
